Recorded Emax values for a group of molecules are listed next.
# Test system: beta-TC6 cells
# MEASUREMENT DESCRIPTION: Insulin HTRF assay, relative activity Ar normalized to sunitinib
# Assay type: cell-based
# EXPERIMENTAL PARAMETERS: Mus musculus, normalized to positive control sunitinib (5 µM = 100%), Table 10

Solved entries:
{"MOLECULE": "Cn1cncc1C#Cc1ccc2nnc(-c3ccc4c(c3)OCO4)n2c1", "Emax": "20 to 50%"}
{"MOLECULE": "CS(=O)(=O)Nc1cccc(-c2ccc3ncc(-c4ccncc4)n3n2)c1", "Emax": "20 to 50%"}
{"MOLECULE": "NC(=O)c1ccc(-c2cnc3ccc(Cc4ccccc4)nn23)cc1", "Emax": "20 to 50%"}
{"MOLECULE": "CC(C)N1CCN(c2ccc(-c3cn4c(-c5ccc(O)cc5)cnc4cn3)cc2)CC1", "Emax": "20 to 50%"}
{"MOLECULE": "Clc1ccccc1-c1ccc2nnc(-c3cccnc3)n2c1", "Emax": "50 to 100%"}
{"MOLECULE": "O=C(O)CCc1ccc(-c2cnc3cnc(-c4cccs4)cn23)cc1", "Emax": "20 to 50%"}
{"MOLECULE": "Oc1cccc(-c2cnc3cnc(-c4ccc(Cl)cc4)cn23)c1", "Emax": "20 to 50%"}
{"MOLECULE": "Nc1ccc(-c2cnc3ccc(Cc4ccccc4)nn23)cn1", "Emax": "20 to 50%"}
{"MOLECULE": "Cc1ccccc1-c1nnc2ccc(-c3cccc(C(=O)NCCO)c3)cn12", "Emax": "10 to 20%"}
{"MOLECULE": "CN(C)CCCOc1ccc(-c2nnc3ccc(-c4ccc(Cl)cc4)cn23)cc1", "Emax": "20 to 50%"}

Let us examine a further case.
Prompt: For the molecule shown here, COc1ccc(CNc2ccc3ncc(-c4ccc(OC)cc4OC)n3n2)cc1 , give the reported Emax.
Completion: 10 to 20%
